molecular target: cGMP-dependent protein kinase 1 (Homo sapiens); assay: Inhibition of full length recombinant N-terminal GST-tagged human PKG expressed in baculovirus infected Sf9 insect cells using RSK as substrate preincubated for 15 mins followed by substrate addition and measured after 30 mins in presence of ATP by ADP Glo kinase assay
Value kind: IC50 (µM)
# value in µM; strip the unit string

Some entries whose results are on file:
- Structure smiles: "COc1cccc([C@@H](C)NC(=O)N2CCC(c3ccncc3F)CC2)c1"
  Value kind: "IC50"
  Unit descriptor: "µM"
  Val: 31.8
- Structure smiles: "COc1cccc([C@@H](C)NC(=O)N2CCN(c3ccncc3F)C[C@H]2C)c1"
  Value kind: "IC50"
  Unit descriptor: "µM"
  Val: 2.25
- Structure smiles: "COc1cccc([C@@H](C)NC(=O)N2CCN(c3ccncn3)C[C@H]2C)c1"
  Value kind: "IC50"
  Unit descriptor: "µM"
  Val: 36.5
- Structure smiles: "C[C@@H]1CN(c2ccncc2F)CCN1C(=O)N[C@H](C)c1cccn2nccc12"
  Value kind: "IC50"
  Unit descriptor: "µM"
  Val: 6.65
- Structure smiles: "COc1cccc([C@@H](C)NC(=O)N2CC[C@H](c3ccncc3)C[C@H]2C)c1"
  Value kind: "IC50"
  Unit descriptor: "µM"
  Val: 23

Request: Return IC50 (reported value) for this compound: COc1cc(F)cc([C@@H](C)NC(=O)N2CCN(c3ccncc3F)C[C@H]2C)c1
Response: 1.7

Request: Return IC50 (reported value) for this compound: COc1ccc(F)c([C@@H](C)NC(=O)N2CCN(c3ccncc3F)C[C@H]2C)c1
Response: 13.1

Request: Return IC50 (reported value) for this compound: COc1cccc([C@@H](C)NC(=O)c2ccc(-c3ccnc(F)c3)nn2)c1
Response: 3.6

Request: Return IC50 (reported value) for this compound: COc1cccc([C@@H](C)NC(=O)c2ccc(-c3ccnc(F)c3)cc2)c1
Response: 0.017

Request: Return IC50 (reported value) for this compound: COc1cc([C@@H](C)NC(=O)N2CCN(c3ccncc3F)C[C@H]2C)ccc1F
Response: 2.34

* * *

assay: Lipophilicity, logP of compound; format: physicochemical; conditions: octanol/water
Value kind: logP

- Compound: "O=S(=O)(c1cccc2c(O)nccc12)N1CCCNCC1 [HYDROXYFASUDIL]"
  Val: 1.43
- Compound: "COc1cc(F)cc([C@@H](C)NC(=O)N2CCN(c3ccncc3F)C[C@H]2C)c1"
  Val: 2.7
- Compound: "CS(=O)(=O)Nc1cccc(CC(=O)Nc2cc(-c3ccnc(F)c3)cs2)c1"
  Val: 3.45

Request: Return logP (reported value) for this compound: COc1ccc(Cl)c([C@@H](C)NC(=O)N2CCN(c3ccncc3F)C[C@H]2C)c1
Response: 3.3

Request: Return logP (reported value) for this compound: COc1cccc([C@@H](C)NC(=O)N2CCN(c3ccncc3F)C[C@H]2C)c1F
Response: 2.6

Request: Return logP (reported value) for this compound: COc1cccc(CC(=O)Nc2cc(-c3ccnc(F)c3)cs2)c1
Response: 4.53

Request: Return logP (reported value) for this compound: C[C@@H]1CN(c2ccncc2F)CCN1C(=O)N[C@H](C)c1cccn2nccc12
Response: 2.1

Request: Return logP (reported value) for this compound: C[C@@H](N)[C@H]1CC[C@H](C(=O)Nc2ccncc2)CC1 [Y-27632]
Response: 0.62

* * *

target: Cytochrome P450 1A2 (Homo sapiens); test: Time dependent inhibition of CYP1A2 in pooled human liver microsomes using […] as substrate preincubated for 30 mins in presence of NADPH followed by substrate addition and measured after 10 mins by LC-MS/MS analysis
Sequence (P05177 whole entry): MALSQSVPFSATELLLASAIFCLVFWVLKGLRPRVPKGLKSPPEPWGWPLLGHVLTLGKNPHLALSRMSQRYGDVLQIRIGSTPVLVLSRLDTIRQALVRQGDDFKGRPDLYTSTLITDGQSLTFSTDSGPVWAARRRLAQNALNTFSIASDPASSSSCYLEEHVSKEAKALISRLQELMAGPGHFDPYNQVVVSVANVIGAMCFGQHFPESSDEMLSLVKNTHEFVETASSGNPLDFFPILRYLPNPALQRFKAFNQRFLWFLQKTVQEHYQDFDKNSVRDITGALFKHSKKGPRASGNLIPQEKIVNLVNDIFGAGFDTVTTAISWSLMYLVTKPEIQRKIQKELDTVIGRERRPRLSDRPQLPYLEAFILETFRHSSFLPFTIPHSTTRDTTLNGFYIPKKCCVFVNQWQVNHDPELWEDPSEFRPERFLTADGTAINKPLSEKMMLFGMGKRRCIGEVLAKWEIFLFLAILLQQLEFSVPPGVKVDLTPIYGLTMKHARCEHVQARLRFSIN
Value kind: pIC50
The quantity pIC50 is defined as the negative base-10 logarithm of the molar concentration.

Request: Return pIC50 (reported value) for this compound: COc1cc(F)cc([C@@H](C)NC(=O)N2CCN(c3ccncc3F)C[C@H]2C)c1
Response: 5.96

* * *

Target: cGMP-dependent protein kinase 1 (Homo sapiens, UniProt Q13976)
Sequence (Q13976 whole entry): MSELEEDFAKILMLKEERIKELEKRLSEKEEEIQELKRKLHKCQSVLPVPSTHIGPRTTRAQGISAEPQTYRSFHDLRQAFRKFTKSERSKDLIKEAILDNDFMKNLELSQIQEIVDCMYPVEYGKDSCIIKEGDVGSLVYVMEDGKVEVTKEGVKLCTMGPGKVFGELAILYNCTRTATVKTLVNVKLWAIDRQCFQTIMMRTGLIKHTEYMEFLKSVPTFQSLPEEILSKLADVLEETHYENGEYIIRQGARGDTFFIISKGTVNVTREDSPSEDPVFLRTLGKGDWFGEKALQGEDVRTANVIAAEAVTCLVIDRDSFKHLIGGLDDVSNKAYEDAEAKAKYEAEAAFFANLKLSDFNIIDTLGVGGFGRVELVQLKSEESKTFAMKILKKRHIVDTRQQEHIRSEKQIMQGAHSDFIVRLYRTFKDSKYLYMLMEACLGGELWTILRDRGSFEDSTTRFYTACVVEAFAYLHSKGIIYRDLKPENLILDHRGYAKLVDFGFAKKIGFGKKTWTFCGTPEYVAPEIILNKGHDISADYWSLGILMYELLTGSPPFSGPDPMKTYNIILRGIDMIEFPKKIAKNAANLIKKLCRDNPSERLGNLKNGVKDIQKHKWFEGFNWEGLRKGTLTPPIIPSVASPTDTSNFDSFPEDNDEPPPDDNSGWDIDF
Experiment: Inhibition of full length recombinant N-terminal GST-tagged human PKG expressed in baculovirus infected Sf9 insect cells using RSK as substrate preincubated for 15 mins followed by substrate addition and measured after 30 mins in presence of ATP by ADP Glo kinase assay
pIC50: −log10 of the molar value.
Classify by measured pIC50: Fulfilled if it is equal to or exceeds 5, Not fulfilled if it is smaller.

Consider the worked cases shown below.
- Structure smiles: "COc1cccc([C@@H](C)NC(=O)c2ccc(-c3ccnc(F)c3)nc2)c1"
  Label: "Fulfilled"
- Structure smiles: "COc1cccc([C@@H](C)NC(=O)N2CC[C@@H](c3ccncc3)C[C@H]2C)c1"
  Label: "Not fulfilled"
- Structure smiles: "COc1cccc([C@@H](C)NC(=O)[C@H]2CC[C@@H](c3ccncc3)CC2)c1"
  Label: "Not fulfilled"

Request: Say whether COc1cccc([C@@H](C)NC(=O)N2CCN(c3ccncc3F)CC2)c1 shows pIC50 of 5 or more.
Response: Fulfilled

Request: Say whether COc1cccc([C@@H](C)NC(=O)N2CCC(c3ccncc3)CC2)c1 shows pIC50 of 5 or more.
Response: Not fulfilled

Request: Say whether COc1cccc([C@@H](C)NC(=O)N2CCN(c3ccnc(F)c3)C[C@H]2C)c1 shows pIC50 of 5 or more.
Response: Not fulfilled

Request: Say whether COc1cccc([C@@H](C)NC(=O)[C@H]2CC[C@H](c3ccncc3)CC2)c1 shows pIC50 of 5 or more.
Response: Fulfilled

Request: Say whether COc1cccc([C@@H](C)NC(=O)c2ccc(-c3ccncc3)nc2)c1 shows pIC50 of 5 or more.
Response: Fulfilled

* * *

target: Rho-associated protein kinase 2 (Homo sapiens); test: Inhibition of recombinant N-terminal GST-tagged human ROCK2 (5 to 554 residues) expressed in baculovirus infected Sf9 cells using S6K as substrate incubated for 30 mins in presence of ATP by ADP Glo kinase assay
Sequence (O75116 whole entry, the tested form may be a part): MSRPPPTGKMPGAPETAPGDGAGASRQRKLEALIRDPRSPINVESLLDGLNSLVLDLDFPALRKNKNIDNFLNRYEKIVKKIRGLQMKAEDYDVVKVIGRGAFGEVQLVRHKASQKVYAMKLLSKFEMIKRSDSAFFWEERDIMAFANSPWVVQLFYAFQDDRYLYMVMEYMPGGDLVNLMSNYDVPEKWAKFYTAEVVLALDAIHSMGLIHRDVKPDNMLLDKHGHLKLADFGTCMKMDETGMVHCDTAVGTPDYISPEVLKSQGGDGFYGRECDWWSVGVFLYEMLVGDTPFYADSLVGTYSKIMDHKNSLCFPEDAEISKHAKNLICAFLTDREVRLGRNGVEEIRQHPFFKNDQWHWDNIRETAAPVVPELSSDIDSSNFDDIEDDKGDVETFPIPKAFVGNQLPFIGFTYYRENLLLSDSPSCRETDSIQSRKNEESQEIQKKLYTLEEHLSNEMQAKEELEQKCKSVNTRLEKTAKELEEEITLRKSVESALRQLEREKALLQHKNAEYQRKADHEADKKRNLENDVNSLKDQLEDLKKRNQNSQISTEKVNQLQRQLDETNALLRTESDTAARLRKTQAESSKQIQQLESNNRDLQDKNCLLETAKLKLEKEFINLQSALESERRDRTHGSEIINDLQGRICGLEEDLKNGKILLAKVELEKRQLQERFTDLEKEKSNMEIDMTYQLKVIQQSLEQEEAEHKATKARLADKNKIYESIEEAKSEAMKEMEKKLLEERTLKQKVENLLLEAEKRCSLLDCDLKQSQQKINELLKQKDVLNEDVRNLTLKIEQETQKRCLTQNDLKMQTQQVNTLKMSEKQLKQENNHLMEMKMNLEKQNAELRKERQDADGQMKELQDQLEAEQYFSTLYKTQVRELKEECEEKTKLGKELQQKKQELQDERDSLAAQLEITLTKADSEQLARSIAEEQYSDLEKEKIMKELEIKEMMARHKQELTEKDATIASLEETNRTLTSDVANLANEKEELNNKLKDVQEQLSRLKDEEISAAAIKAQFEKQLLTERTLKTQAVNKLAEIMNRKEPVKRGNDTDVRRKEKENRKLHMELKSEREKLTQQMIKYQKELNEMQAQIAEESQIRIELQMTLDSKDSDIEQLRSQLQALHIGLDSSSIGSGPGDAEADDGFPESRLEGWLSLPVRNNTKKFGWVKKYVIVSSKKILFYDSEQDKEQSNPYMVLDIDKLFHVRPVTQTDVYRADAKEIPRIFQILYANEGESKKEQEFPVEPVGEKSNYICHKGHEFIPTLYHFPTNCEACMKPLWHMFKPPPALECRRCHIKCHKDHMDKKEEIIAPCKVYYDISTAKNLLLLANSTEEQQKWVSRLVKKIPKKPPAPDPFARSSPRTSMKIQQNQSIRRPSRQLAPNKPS
Quick list: log10 of IC50 per entry.
Short version: log10 scale, IC50, nM.

Some entries whose results are on file:
- Structure smiles: "COc1cccc([C@@H](C)NC(=O)N2CCN(c3ccncc3)C(=O)C2)c1"
  Target or test system: "Rho-associated protein kinase 2 (Homo sapiens)"
  Val: 2.73
- Structure smiles: "COc1cccc([C@@H](C)NC(=O)c2ccc(-c3ccncc3)nc2)c1"
  Target or test system: "Rho-associated protein kinase 2 (Homo sapiens)"
  Val: 0.60
- Structure smiles: "COc1cccc([C@@H](C)NC(=O)N2CC[C@@H](c3ccncc3)C[C@H]2C)c1"
  Target or test system: "Rho-associated protein kinase 2 (Homo sapiens)"
  Val: 1.54
- Structure smiles: "COc1cccc([C@@H](C)NC(=O)N2CC[C@H](c3ccncc3)C[C@@H]2C)c1"
  Target or test system: "Rho-associated protein kinase 2 (Homo sapiens)"
  Val: 3.21
- Structure smiles: "COc1cccc([C@@H](C)NC(=O)N2CC[C@H](c3ccncc3)C[C@H]2C)c1"
  Target or test system: "Rho-associated protein kinase 2 (Homo sapiens)"
  Val: 0.95

Request: Return log10 of IC50 (reported value) for this molecule: COc1cccc([C@@H](C)NC(=O)[C@H]2CC[C@H](c3ccncc3)CC2)c1
Response: 1.99

Request: Return log10 of IC50 (reported value) for this molecule: COc1cccc([C@@H](C)NC(=O)[C@H]2CC[C@@H](c3ccncc3)CC2)c1
Response: 3.64

Request: Return log10 of IC50 (reported value) for this molecule: C[C@@H]1CN(c2ccncc2F)CCN1C(=O)N[C@H](C)c1cccn2nccc12
Response: 0.30

Request: Return log10 of IC50 (reported value) for this molecule: COc1cccc([C@@H](C)NC(=O)[C@@H]2CC[C@@H](c3ccncc3)C[C@@H]2C)c1
Response: 2.93

Request: Return log10 of IC50 (reported value) for this molecule: COc1cccc([C@@H](C)NC(=O)c2ccc(-c3ccnc(F)c3)nn2)c1
Response: 2.45

Request: Return log10 of IC50 (reported value) for this molecule: COc1cccc([C@@H](C)NC(=O)c2ccc(-c3ccnc(F)c3)cn2)c1
Response: 1.70

Request: Return log10 of IC50 (reported value) for this molecule: COc1cccc([C@@H](C)NC(=O)N2CCN(c3ccncc3)CC2)c1
Response: 3.68
